Measured values drawn from patent US20250195521A1 for this set.

test.system: KRAS G12C (Homo sapiens (Human), UniProt P01116+P62937, G12C)
Sequence (P01116-2 other isoform, or with tags, fused parts or gaps G12C): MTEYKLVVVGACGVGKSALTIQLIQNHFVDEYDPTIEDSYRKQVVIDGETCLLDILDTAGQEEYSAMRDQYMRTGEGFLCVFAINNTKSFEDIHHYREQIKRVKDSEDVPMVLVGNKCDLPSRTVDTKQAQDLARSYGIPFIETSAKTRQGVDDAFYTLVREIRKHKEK
Sequence (P62937 whole entry): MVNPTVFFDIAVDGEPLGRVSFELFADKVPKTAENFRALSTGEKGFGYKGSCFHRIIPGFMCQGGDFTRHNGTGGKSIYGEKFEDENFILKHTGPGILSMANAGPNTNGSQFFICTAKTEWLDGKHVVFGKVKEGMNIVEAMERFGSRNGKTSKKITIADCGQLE
test.summary: Ras-Raf disruption/FRET/MOA assay (BRAF RBD, Cyclophilin A)
Assay type: biochemical
details: read-out: KRAS G12C FRET IC50
pIC50: −log10 of the molar value.
# pIC50 values compiled below

[
  {
    "structure.smiles.string": "CCn1c(-c2cccnc2[C@H](C)OC)c2c3cc(ccc31)-c1csc(n1)[C@@H](OC)[C@H](NC(=O)[C@H](C(C)C)N(C)C(=O)N(C)C)C(=O)N1CCC[C@H](N1)C(=O)OCC(C)(C)C2",
    "pIC50": "7.00 to 8.00"
  },
  {
    "structure.smiles.string": "CCn1c(-c2cccnc2[C@H](C)OC)c2c3cc(ccc31)-c1cccc(c1)C[C@H](NC(=O)[C@H](C(C)C)N(C)C(C)=O)C(=O)N1CCC[C@H](N1)C(=O)OCC(C)(C)C2",
    "pIC50": "5.00 to 6.00"
  },
  {
    "structure.smiles.string": "CCn1c(-c2cnccc2COC)c2c3cc(ccc31)-c1cc(O)cc(c1)C[C@H](NC(=O)[C@H](C(C)C)N(C)C(=O)[C@H]1CCN(C(=O)CO)C1)C(=O)N1CCC[C@H](N1)C(=O)OCC(C)(C)C2",
    "pIC50": "7.00 to 8.00"
  }
]
